Recorded values, source the NIST ThermoML archive (doi:10.1021/acs.jced.6b00471).

# assay_comment: refractive index (Na D-line) (dimensionless)
# condition_context: 298.15 K; 101.33 kPa; Liquid; Standard Abbe refractometry
attribute_measured: refractive index

>>> experimental_result("CC(C)(C)O")
1.3857
>>> experimental_result("CC(C)CO")
1.3931
>>> experimental_result("CCC(C)OC(C)=O (centres undefined) [1-methylpropyl ethanoate]")
1.3872
>>> experimental_result("CCCCO")
1.397
